# assay.conditions: buffer; pH 7.4; 200.0 µM
solubility kinetic below 20 µg/mL gives n; solubility kinetic at or above it gives y.

O=C(NCCN1CCOCC1)C(Sc1ccccc1)c1ccccc1 (stereo not drawn); y
CC(=O)Nc1ccc(C(F)(F)F)cc1Cl; y
Cc1cccc(OCC(=O)NC2CCCCCC2)c1C; n
COCCn1c(-c2ccc(F)cc2)nc2cccnc21; y
CCOC(=O)C1=C(O)C(=O)N(Cc2ccccc2)C1; y

Ask: solubility kinetic >= 20 µg/mL for CCC(C(=O)Nc1cc(C)cc(C)n1)c1ccccc1 (stereo not drawn) ?
Result: y

Ask: solubility kinetic >= 20 µg/mL for CCOC(=O)c1[nH]cnc1C(=O)Nc1ccc(C)cc1 ?
Result: n

Ask: solubility kinetic >= 20 µg/mL for COc1ccc(-c2nc(-c3ccncc3)no2)cc1 ?
Result: n

Ask: solubility kinetic >= 20 µg/mL for CNC(=O)/C(=C\c1ccco1)NC(=O)c1ccco1 ?
Result: y

Ask: solubility kinetic >= 20 µg/mL for CCN(Cc1cccc(F)c1)C(=O)c1ccc2ccccc2n1 ?
Result: y

Ask: solubility kinetic >= 20 µg/mL for C=CCn1c(C(CC)CC)nc2ccccc21 ?
Result: y

Ask: solubility kinetic >= 20 µg/mL for COc1ccc(NC(=O)COC(=O)C2CC2)c(OC)c1 ?
Result: y

Ask: solubility kinetic >= 20 µg/mL for O=C(/C=C/c1cccc(Cl)c1)NCCCN1CCOCC1 ?
Result: y

----------
# assay.conditions: buffer; pH 7.4; 200.0 µM
quantity.name: solubility kinetic (µg/mL)
Respond numerically; units are µg/mL and should not be typed.

O=C1CSC(=S)N1c1ccc(O)cc1; 28.1
N#C/C(=C\c1ccc(F)c(Br)c1)C(=O)NC1CC1; 6.1
O=C(NCc1ccccc1)c1ccc(Cl)cc1; 3.8
Cc1cccc(Nc2ccc([N+](=O)[O-])cn2)c1; 13.4
CCCNC(=O)C(=O)NCC1CCCN1CC (stereo not given); 36

The reported solubility kinetic of the molecule CC(C)Oc1ccc(C2NC(=O)c3ccccc3O2)cc1 (stereo not given) was 2.6

The reported solubility kinetic of the molecule COc1ccc(-c2csc(N=C(N)N)n2)cc1 was 12.2

The reported solubility kinetic of the molecule O=C(OCC(=O)N1CCCCCC1)c1ccc(F)cc1F was 44.4

The reported solubility kinetic of the molecule Cc1cc(S(=O)(=O)NCc2ccc3c(c2)OCO3)ccc1F was 46.8

The reported solubility kinetic of the molecule CCCOc1ccc(-c2cn3ccccc3n2)cc1 was 2.3

The reported solubility kinetic of the molecule O=C(COC(=O)c1cc(S(=O)(=O)Nc2ccccc2Cl)ccc1O)Nc1ccc(F)c(F)c1F was 10

The reported solubility kinetic of the molecule COCCNC(=O)c1cc2cc(Br)cc(Br)c2oc1=O was 1.6

----------
Measured solubility kinetic, listed per entry.
# assay.conditions: buffer; pH 7.4; 200.0 µM
Respond numerically; units are µg/mL and should not be typed.

The reported solubility kinetic of the compound CN(C(=O)c1cc2ccccc2cc1O)C1CCCCC1 was 40.6

The reported solubility kinetic of the compound Cc1ccc(-n2c(C(C)C)nc3oc4ccccc4c(=O)c3c2=O)cc1 was 14.7

The reported solubility kinetic of the compound CC1(c2ccccc2Br)NC(=O)N(CC(=O)N2CCc3ccccc3C2)C1=O (stereo unspecified) was 8.1

The reported solubility kinetic of the compound CC1=C(C(=O)OCC2CCCCC2)C(c2cccc(O)c2)NC(=O)N1 (stereo unspecified) was 37.3

The reported solubility kinetic of the compound Cc1cc(C(=O)OCC(=O)NCc2ccccc2)c2ccccc2n1 was 13.9

----------
# assay.conditions: buffer; pH 7.4; 200.0 µM
Measured solubility kinetic, listed per entry.
Respond numerically; units are µg/mL and should not be typed.

Recorded results for 2 compounds are shown here.
CC(=O)c1ccc(-c2ccc(C(=O)Nc3nc(-c4ccccn4)cs3)o2)cc1; 4.9
Cc1ccc(CNC(=O)N2CCN(c3ccc(C)cc3)CC2)cc1; 4.1

The reported solubility kinetic of the compound Cc1noc(C)c1COC(=O)c1csc2c1CCCC2 was 8.3

The reported solubility kinetic of the compound Cc1cc(C)nc(NC(=O)c2ccc([N+](=O)[O-])c(C)c2)n1 was 13.3

The reported solubility kinetic of the compound CCOc1ccc(CSCCNC(=S)Nc2ccc(OC)cc2)cc1 was 1.1

The reported solubility kinetic of the compound Cc1ccc(NC(=O)CCOc2ccccc2)c(C)c1 was 20.2

The reported solubility kinetic of the compound COc1ccc(CCN=Cc2ccc(O)cc2)cc1OC was 40.1

The reported solubility kinetic of the compound CC(=O)N1Cc2ccccc2CC1C(=O)N1CCN(c2ccccc2)CC1 (stereo not given) was 43.5

The reported solubility kinetic of the compound COc1cc(C=O)ccc1OCc1ccncc1 was 35.2

The reported solubility kinetic of the compound O=C(CN1C(=O)S/C(=C\c2ccc(C(=O)O)cc2)C1=O)Nc1ccccc1 was 32.2

The reported solubility kinetic of the compound CCCn1c(N)c(N2CCCCC2)c(=O)n(CC(=O)Nc2ccccc2C(F)(F)F)c1=O was 7.7

The reported solubility kinetic of the compound CCCN1CCC(NC(=O)Cc2ccccc2C)CC1 was 33.4

The reported solubility kinetic of the compound O=C(NCC(c1ccco1)N1CCCCC1)c1ccc(S(=O)(=O)Nc2ccccc2Cl)cc1 (stereo not given) was 17.7

----------
# assay.conditions: buffer; pH 7.4; 200.0 µM
Measured solubility kinetic, listed per entry.

Cc1ccc(CC(=O)Nc2ccc(F)c([N+](=O)[O-])c2)cc1C; 4.1 µg/mL
CC(C)N1C(=O)CCC1C(=O)NCc1ccco1 (centres undefined); 29.2 µg/mL
C=CCN(CC=C)C(=S)Nc1cc(Cl)ccc1OC; > 44.5 µg/mL
CCOC(=O)c1c(C)[nH]c(C(=O)C(C)N2CCCC2)c1C (centres undefined); 37 µg/mL
Cc1cc2oc(=O)cc(CN3CCOCC3)c2c(C)c1Cl; 0.9 µg/mL
CCOC(=O)CSc1nnc(-c2cccnc2)n1C; > 41.7 µg/mL

The reported solubility kinetic of the molecule O=C(NCc1ccccc1)C1CCN(C(=O)Cc2ccccc2)CC1 was > 50.5 µg/mL

The reported solubility kinetic of the molecule Cc1cnc(NC(=O)CCN2C(=O)C3CCCCC3C2=O)s1 (centres undefined) was 39.3 µg/mL

The reported solubility kinetic of the molecule COc1ccc(NC(=O)c2ccccc2NC(=O)c2ccco2)cc1 was < 0.4 µg/mL

The reported solubility kinetic of the molecule O=C(/C=C/c1ccco1)NCC1COc2ccccc2O1 (centres undefined) was > 42.8 µg/mL

The reported solubility kinetic of the molecule CCN(c1ccccc1)S(=O)(=O)c1ccc(C(=O)N2CCN(c3ccccc3)CC2)cc1 was 7 µg/mL

The reported solubility kinetic of the molecule CCNC(=S)Nc1ccc2ncoc2c1 was > 33.2 µg/mL

The reported solubility kinetic of the molecule COc1ccc(N=C2CCS(=O)(=O)c3sccc32)cc1 was > 46.1 µg/mL

The reported solubility kinetic of the molecule O=[N+]([O-])c1cccc(S(=O)(=O)N2CN(c3ccc(Br)cc3)c3nc4ccccc4nc32)c1 was 1.6 µg/mL

----------
# assay.conditions: buffer; pH 7.4; 200.0 µM
quantity.name: solubility kinetic

CCOC(=O)C1C(CC)NC(=S)NC1(C)O (configuration not stated); 35 µg/mL
Cc1cc(=O)[nH]c(NCc2ccc(Cl)cc2)n1; > 37.5 µg/mL
CC(=O)N(C)c1ccc(NC(=S)NC(=O)/C=C/c2ccco2)cc1; 11.6 µg/mL
CN(C)c1cccc(C(=O)Nc2nc3ccccc3[nH]2)c1; 12.1 µg/mL
Cc1oc(C(N)=O)nc1-c1ccccc1; > 30.3 µg/mL

The reported solubility kinetic of the compound Cc1nc2cc(NS(=O)(=O)c3cccc(F)c3)ccc2s1 was > 48.4 µg/mL

The reported solubility kinetic of the compound COC(=O)/C(C#N)=C/c1c(N2CCN(C)CC2)nc2ccccn2c1=O was > 53 µg/mL

The reported solubility kinetic of the compound C(CNC1C2CC3CC(C2)CC1C3)CN1CCOCC1.Cl (configuration not stated) was > 52.7 µg/mL

The reported solubility kinetic of the compound C/C(=N/NC(=O)c1ccncc1)c1ccc2c(c1)OCO2 was > 42.5 µg/mL

The reported solubility kinetic of the compound CCn1c(C)nnc1SCC(=O)Nc1ccc(C(C)=O)cc1 was > 47.8 µg/mL

The reported solubility kinetic of the compound CN(Cc1ccc(F)cc1)C(=O)CN1C(=O)c2ccccc2S1(=O)=O was 49 µg/mL

The reported solubility kinetic of the compound COc1ccc(NC(=O)CN(C)C(=O)CC2CCCCC2)cc1 was > 47.8 µg/mL

----------
# assay.conditions: buffer; pH 7.4; 200.0 µM
solubility kinetic below 8 µg/mL gives F; solubility kinetic at or above it gives T.

COc1ccc(NC(=S)NCCc2ccccc2)c(C)c1; T

Ask: solubility kinetic >= 8 µg/mL for COc1ccccc1NC(=O)c1ccccc1Oc1ccccc1 ?
Result: F

Ask: solubility kinetic >= 8 µg/mL for O=C(O)CSCc1nc2scc(-c3ccccc3)c2c(=O)[nH]1 ?
Result: T

Ask: solubility kinetic >= 8 µg/mL for c1ccc2[nH]c(CCCCc3nc4ccccc4[nH]3)nc2c1 ?
Result: T

Ask: solubility kinetic >= 8 µg/mL for CCOC(=O)c1sc(=NC(=O)c2ccc(F)cc2)n(C)c1C ?
Result: F
